Assignment: determine reported ELISA absorbance 405 nm for the given binders.
# tested-target: T1, recombinant human EGFRvIII protein (extracellular domain), denatured (human, UniProt P00533 298-623)
# T1 construct: Same protein as m21 after 95 C for 5 min in PBS with 40 mM DTT (denatured, reduced); also called EGFRvIII Denatured
# protocol-text: ELISA Exp 1, mAb supernatant

Enquiry: For the binder F265-9C9 (antibody, V domains shown, Mouse hybridoma mAb) VH: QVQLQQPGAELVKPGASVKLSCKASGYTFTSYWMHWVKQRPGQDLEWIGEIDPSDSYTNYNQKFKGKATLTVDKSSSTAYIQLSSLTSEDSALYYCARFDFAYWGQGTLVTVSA VL: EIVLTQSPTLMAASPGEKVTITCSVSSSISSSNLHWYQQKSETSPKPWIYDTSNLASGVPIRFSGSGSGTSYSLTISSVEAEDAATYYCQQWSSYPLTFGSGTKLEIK , what ELISA absorbance 405 nm is on record?
Return: 1.72 A405

Enquiry: Now the same for F266-11H3 (antibody, V domains shown, Mouse hybridoma mAb) VH: QIQLVQSGPELKKPGETVKISCKASGYTFTTAGMQWVQKMPGKGFKWIGWINTHSGDPKYAEDFKGRFAFSLETYASTAYLQISNLKNEDTATYFCARTHIYDGYNYAMDYWGQGTSVTVSS VL: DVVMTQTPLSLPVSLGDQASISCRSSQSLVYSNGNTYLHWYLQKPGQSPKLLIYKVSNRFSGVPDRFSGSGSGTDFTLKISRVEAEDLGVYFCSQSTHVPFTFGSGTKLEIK
Return: 2.1 A405

Enquiry: Now the same for F263-4B3 (antibody, V domains shown, Mouse hybridoma mAb) VH: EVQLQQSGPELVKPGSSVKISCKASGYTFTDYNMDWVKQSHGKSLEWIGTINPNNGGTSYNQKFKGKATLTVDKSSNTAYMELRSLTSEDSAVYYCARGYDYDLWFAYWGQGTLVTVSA VL: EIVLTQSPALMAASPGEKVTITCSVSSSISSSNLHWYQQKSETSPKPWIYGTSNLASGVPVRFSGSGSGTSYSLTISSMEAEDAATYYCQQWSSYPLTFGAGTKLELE
Return: 1.74 A405
